Here, each record is paired with measured Percent Effect data.
biological target: Sialic acid-binding Ig-like lectin 9 (Homo sapiens) (UniProt Q9Y336); experiment: Hs-Siglec9 ALPHAscreen SOP 20170721; parameters: scale not given: direction of the effect not stated beside the values; conditions: 10 µM
Sequence (Q9Y336 whole entry): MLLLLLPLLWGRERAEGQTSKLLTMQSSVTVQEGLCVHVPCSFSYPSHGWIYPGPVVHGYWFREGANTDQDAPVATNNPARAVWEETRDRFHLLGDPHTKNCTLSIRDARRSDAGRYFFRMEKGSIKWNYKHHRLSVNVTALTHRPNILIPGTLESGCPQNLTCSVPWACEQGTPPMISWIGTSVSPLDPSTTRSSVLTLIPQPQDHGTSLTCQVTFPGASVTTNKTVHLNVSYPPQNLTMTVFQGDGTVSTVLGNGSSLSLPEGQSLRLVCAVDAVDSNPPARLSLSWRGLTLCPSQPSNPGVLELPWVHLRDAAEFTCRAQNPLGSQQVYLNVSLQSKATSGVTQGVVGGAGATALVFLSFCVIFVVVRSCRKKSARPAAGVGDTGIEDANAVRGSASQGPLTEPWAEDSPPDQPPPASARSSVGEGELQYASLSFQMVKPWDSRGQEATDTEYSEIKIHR
Observed property: Percent Effect (%)

- Molecule: "Cc1cnn(CCCNC(=O)N2CCCCC(N3CCCC3)C2)c1 (stereo unspecified)"
  Experimental value: 7.49
- Molecule: "CCc1nc(CNC(=O)Nc2ccc(C(=O)NC)cc2C)cs1"
  Experimental value: 18.6
- Molecule: "O=C(Nc1ccc(F)cc1)N1C[C@H]2C[C@H](C(=O)N3CCOCC3)[C@@H](C1)O2"
  Experimental value: 3.78
- Molecule: "CN1CCN(C(=O)[C@H]2C[C@@H]3CCN(c4ncc(F)cn4)C[C@@H]3O2)CC1"
  Experimental value: 14.4
- Molecule: "CC(C)NC(=O)N1CCN(S(=O)(=O)C2CC2)CC2(CC(=O)N(C)C2)C1 (stereo unspecified)"
  Experimental value: -0.477
- Molecule: "O=C(CCc1c[nH]cn1)N1CC[C@@H](c2ccc3ccccc3c2)[C@H](O)C1"
  Experimental value: 24.9
- Molecule: "CN(C)C(=O)c1cnc2n1CCN(Cc1ccccc1)C2"
  Experimental value: -6.07
- Molecule: "NC(=O)N1CC[C@H](O)[C@@H]1Cc1cccnc1"
  Experimental value: -5.75
- Molecule: "CCn1cnnc1C1CCN(C(=O)c2cccc3c2ccn3C)CC1"
  Experimental value: 0.647
- Molecule: "COC(=O)c1cc(C(=O)N2CCCCCC2)n(-c2ccccc2)n1"
  Experimental value: 4.54
- Molecule: "CCN(CC)C(=O)CN(C)C1CCc2ccccc21 (stereo unspecified)"
  Experimental value: -2.93

* * *

molecular target: Arginase-2, mitochondrial (Homo sapiens); assay: in vitro enzyme assay to detect the production of urea directly proportional to the activity of Arginase II; type: functional; set-up: scale not given: in the data most compounds retested in dose-response had high values; details: 33.3 µM
Observed property: Percent Effect

- Molecule: "CN(C)CCOCC1CN(C(=O)[C@H]2CCCO2)Cc2ccnn2C1 (stereo partly specified)"
  Observed property: "Percent Effect"
  Experimental value: "-46.1%"
- Molecule: "c1csc(-c2nc(CN3CCOC(Cn4cncn4)C3)co2)c1 (stereo unspecified)"
  Observed property: "Percent Effect"
  Experimental value: "-6.01%"
- Molecule: "CCN(CCC(F)(F)F)C(=O)Nc1cccc(N2CCOCC2)c1"
  Observed property: "Percent Effect"
  Experimental value: "-2.38%"
- Molecule: "CC(CN1CCN(C)CC1)NC(=O)c1cc(Cl)c2c(c1)OCO2 (stereo unspecified)"
  Observed property: "Percent Effect"
  Experimental value: "1.77%"
- Molecule: "CCc1nc(C(=O)NCc2ccc(N3CCNC(=O)C3)c(F)c2)c[nH]1"
  Observed property: "Percent Effect"
  Experimental value: "-3.81%"
- Molecule: "CN(C)C(=O)NC1COC2(CCN(Cc3ccccc3)CC2)C1 (stereo unspecified)"
  Observed property: "Percent Effect"
  Experimental value: "1.17%"
- Molecule: "Cn1cc(CCNC(=O)NCc2nnc3n2CCC3)cn1"
  Observed property: "Percent Effect"
  Experimental value: "2.28%"
- Molecule: "CCSCCNC(=O)C(c1cccc(F)c1)N(C)C (stereo unspecified)"
  Observed property: "Percent Effect"
  Experimental value: "-0.952%"
- Molecule: "O=C(c1ccc(-n2cccn2)nc1)N1CCCN(c2cccnn2)CC1"
  Observed property: "Percent Effect"
  Experimental value: "1.47%"
- Molecule: "CC(C)(C)C(=O)NS(=O)(=O)c1ccc(C#N)cc1C(F)(F)F"
  Observed property: "Percent Effect"
  Experimental value: "2.81%"
- Molecule: "c1cc2c(cc1C1CCCN1Cc1nnnn1C1CC1)OCCO2 (stereo unspecified)"
  Observed property: "Percent Effect"
  Experimental value: "-5.74%"
